Assay: Change of concentration in plasma over time after oral administration to rats (KNI-272 with Indinavir or Nelfinavir)
Conditions: rat, plasma, po, 40 mg/kg, AUC value of Indinavir, Indinavir 40 mg/kg p.o. together with KNI-272 40 mg/kg
endpoint name: AUC (ng·h/mL)
Only the number, expressed in ng·h/mL, is required.

Problem: Given the entry CC(C)(C)NC(=O)[C@@H]1CN(Cc2cccnc2)CCN1C[C@@H](O)C[C@@H](Cc1ccccc1)C(=O)N[C@H]1c2ccccc2C[C@H]1O [Indinavir, reference compound] , report its measured AUC.
Result: 44300

====

Assay: Change of concentration in plasma over time after oral administration to rats (KNI-272 with Indinavir or Nelfinavir)
Settings: rat, plasma, po, 40 mg/kg, AUC value of KNI-272, KNI-272 40 mg/kg p.o. together with Indinavir 40 mg/kg
endpoint name: AUC
A complete answer gives the number followed by the unit.

Problem: Given the entry CSC[C@H](NC(=O)COc1cccc2cnccc12)C(=O)N[C@@H](Cc1ccccc1)[C@H](O)C(=O)N1CSC[C@H]1C(=O)NC(C)(C)C , report its measured AUC.
Result: 29200 ng·h/mL
